# Test system: L1210 leukemia ip in BDF1 mice, survival T/C
# ASSAY_NOTES: NCI In Vivo Anticancer Drug Screen. Data for tumor model L1210 Leukemia (intraperitoneal) in B6D2F1 (BDF1) mice
# APPLIED_CONDITIONS: endpoint: mean survival time; dose: 400.0 mg/kg/injection; schedule: Q01DX001 (ip); vehicle: other; higher = longer survival
Toxic doses and inconclusive results are not listed.
Kindly state T/C for each of the entries shown.

State its T/C on L1210 leukemia ip in BDF1 mice, survival T/C: `CN1c2ccc(Br)c[c]2[Sn]([c]2ccccc2)([c]2ccccc2)[c]2cc(Br)ccc21` 96 % of control

Next entry: `CCOC(=O)Cc1cc(=O)c2ccc(Cl)cc2[nH]1` 92 % of control

Next entry: `O=S1(=O)c2ccccc2Oc2ccccc21` 96 % of control

Next entry: `O=C(OCCCCCCCCOC(=O)c1cccc([N+](=O)[O-])c1)c1cccc([N+](=O)[O-])c1` 96 % of control

Next entry: `O=c1oc2cc(N=Cc3ccc4c(c3)OCO4)ccc2c2ccccc12` 90 % of control

Next entry: CC(=O)Oc1cc(C)c2c(c1C)C1OC(=O)C(C)C1CC2 (stereo not drawn) 97 % of control

Next entry: O=S(=O)(c1ccccc1)N1CC1CBr (stereo not drawn) 108 % of control

Next entry: `O=C(C[P+](c1ccccc1)(c1ccccc1)c1ccccc1)c1ccc(Br)cc1` 105 % of control

###

# Tested on: L1210 leukemia ip in BDF1 mice, survival T/C
# ASSAY_NOTES: NCI In Vivo Anticancer Drug Screen. Data for tumor model L1210 Leukemia (intraperitoneal) in B6D2F1 (BDF1) mice
# APPLIED_CONDITIONS: endpoint: mean survival time; dose: 100.0 mg/kg/injection; schedule: Q04DX002 (ip); vehicle: saline; higher = longer survival
# Description: The antitumor activity of compounds was measured in mice bearing transplantable tumors. Survival or tumor size were measured and the results are expressed as the measurement made in the treated group (T) divided by the measurement made in the vehicle treated control group (C). The tumor model used in this assay is L1210 Leukemia (intraperitoneal) in B6D2F1 (BDF1) mice
Toxic doses and inconclusive results are not listed.
Kindly state T/C for each of the entries shown.

Entry under review: `CCCCOCCOCCOc1ccc(Cl)cc1` . Reported T/C? 100 % of control

Next entry: `COCP(=O)(O)O` 96 % of control

Next entry: `CN(C)C(=O)CCCCC(=O)N(C)C` 94 % of control

Next entry: `CNC(Cl)(Cl)NC` 86 % of control

Next entry: C1=CC(OC2C=CCC2)CC1 (stereo not given) 99 % of control

###

Kindly state T/C for each of the entries shown.
# Test system: L1210 leukemia ip in BDF1 mice, survival T/C
# ASSAY_NOTES: NCI In Vivo Anticancer Drug Screen. Data for tumor model L1210 Leukemia (intraperitoneal) in B6D2F1 (BDF1) mice
# APPLIED_CONDITIONS: endpoint: mean survival time; dose: 400.0 mg/kg/injection; schedule: Q01DX001 (ip); vehicle: saline with Tween-80; higher = longer survival
Toxic doses and inconclusive results are not listed.

Entry under review: `COc1cc([N+](=O)[O-])ccc1NC(=O)N(C1CCCCC1)C1CCCCC1` . Reported T/C? 91 % of control

Next entry: COc1cc(C)c(C)cc1/C(C)=C(/C)C(=O)O (tested in a mixture with another compound) 103 % of control

Next entry: O=C1NC2c3ccccc3CC12 (stereo unspecified) 89 % of control

Next entry: `CC1(N(O)C(=O)NCCCl)CCCCC1` 93 % of control

Next entry: `CCOc1ccc(NC(=S)NC(=O)c2cccc([N+](=O)[O-])c2)cc1` 102 % of control

Next entry: `NC1=C(Sc2ccccc2)C(=O)c2ccccc2C1=O` 94 % of control

Next entry: `CS(=O)(=O)c1nc(Cl)c(Cl)[nH]1` 104 % of control

Next entry: `C/C(=N\Nc1c(F)c(F)c(F)c(F)c1F)c1ccccc1` 100 % of control

Next entry: `NC(=O)C(O)(c1ccccc1)c1ccccc1` 101 % of control

Next entry: `Nc1ccc(Cn2ccc(=O)[nH]c2=O)cc1` 87 % of control

Next entry: `O=C(O)c1ccc(Cn2ccc(=O)[nH]c2=O)cc1` 101 % of control
